Attribution: PubChem BioAssay (NCI)

assay: NCI Yeast Anticancer Drug Screen. Data for the mgt1 strain (AID 153); conditions: S. cerevisiae mgt1 mutant growth inhibition; at 3.7 µM; stronger effect = higher value
Compounds without any hit were thinned out: in the full panel of roughly 79,000, 15% have a hit. Calls of active or inactive are those of the source. No stated cut-off is given here; in the data, active means growth inhibition above about 70%; inactive means the rest.
The entries below come with measured growth inhibition values attached.

[
  {
    "Compound": "OC(c1ccccc1)(c1ccccc1)c1nccc2ccccc12",
    "growth inhibition": "8% (inactive)"
  }
]

What does the record list as growth inhibition for `c1ccc([P+](CCN2Cc3ccccc3C2)(c2ccccc2)c2ccccc2)cc1` ?
2% (inactive)

Request the reported growth inhibition associated with `OB(O)c1ccccc1C#Cc1ccccc1`
3% (inactive)

Quick one: growth inhibition for `O=[N+]([O-])c1ccc(/C=C\c2ccc3c(c2)OCO3)c([N+](=O)[O-])c1` ?
2% (inactive)

Need growth inhibition of `O=[N+]([O-])c1ccc(S(=O)(=O)Cc2ccccc2)c([N+](=O)[O-])c1` , thanks.
14% (inactive)

For the compound `CCN(CC)CCNc1ccc(C)c2sc3ccc(O)cc3c(=O)c12` , what growth inhibition is on record?
27% (inactive)

Report growth inhibition for CN1C(=O)C(CC(=O)O)NC1=S (stereo not drawn) please.
-2% (inactive)

State the recorded growth inhibition for this entry: `NC(=O)NC1C(c2ccccc2)=C1c1ccccc1`
-2% (inactive)

Quick check: growth inhibition of COC(=O)C1CCCCC1C(=O)Nc1ccccc1 (stereo not drawn) ?
-1% (inactive)

So what does the record say about growth inhibition for C/C1=C/C2OC(=O)C3(C)C2C(CC2(C)OC1=CC2=O)OC3(O)C(C)C (stereo not drawn) ?
-18% (inactive)

Given `CS(=O)(=O)O.[Ag]` , state its recorded growth inhibition.
99% (active)

Can you look up the measured growth inhibition of c1ccc2c(c1)N=C1CCCC3CCCC123 (stereo not drawn) for me?
1% (inactive)

Tell me the measured growth inhibition of `O=S(=O)(c1ccccc1)N1CN2CN(C1)CN(S(=O)(=O)c1ccccc1)C2` , please.
7% (inactive)
